The reported measurements were obtained from patent US20220119513A1.

- assaySystem: T1, TGFβ2 (R&D Systems)
- T1 construct: also called TGFB2
- T1 sequence (P61812 303-414, species assumed, looked up): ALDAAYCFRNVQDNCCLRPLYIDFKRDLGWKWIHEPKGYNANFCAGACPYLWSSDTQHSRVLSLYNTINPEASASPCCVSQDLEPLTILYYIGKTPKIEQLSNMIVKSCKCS
- testSummary: SPR full titration

# binder, Kd
records = [
    ("affinity matured HcLb 260 (antibody, V domains shown, full IgG; constant regions not restated) VH: SEVQLVQSGAEVKKPGASVKVSCKTSGYTFITYWMNWVRQAPGAGLDWMGQIFPAWGVTNYNEMFEGRVTLTADTSTSTAYMELSSLRAGDIAVYYCARGYGNYALDAMDYWGQGTLVTVSS VL: DIVMTQTPPSLSVSPRETASISCRASESVDSYGNSFMHWYLQKPGQSPQLLIYLASNLESGVSDRFSGSGSGTDFTLRISRVEANDTGVYYCQQNNEDPLTFGQ", "4.36 nM"),
    ("affinity matured HcLb 258 (antibody, V domains shown, full IgG; constant regions not restated) VH: EVQLVQSGAEVKKPGASVKVSCKTSGYTFMKYWMNWVRQAPGAGLDWMGQIFPAWGSTNYNEMFEGRVTLTADTSTSTAYMELSSLRAGDIAVYYCARGYGNYALDAMDYWGQGTLVTVSS VL: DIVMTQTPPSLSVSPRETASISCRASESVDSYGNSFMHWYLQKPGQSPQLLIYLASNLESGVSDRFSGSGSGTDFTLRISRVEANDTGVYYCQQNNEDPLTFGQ", "4.4 nM"),
    ("affinity matured HcLb 275 (antibody, V domains shown, full IgG; also called canHcLb/55SW/100DY/57SM/30IW/31TF/28TK + canHcLb/237ND/242TS) VH: EVQLVQSGAEVKKPGASVKVSCKTSGYKFWFYWMNWVRQAPGAGLDWMGQIFPAWGMTNYNEMFEGRVTLTADTSTSTAYMELSSLRAGDIAVYYCARGYGNYALDAMDYWGQGTLVTVSS VL: DIVMTQTPPSLSVSPRETASISCRASESVDSYGNSFMHWYLQKPGQSPQLLIYLASNLESGVSDRFSGSGSGTDFTLRISRVEANDTGVYYCQQNDEDPLSFGQGTK", "2.91 nM"),
    ("affinity matured HcLb 259 (antibody, V domains shown, full IgG; constant regions not restated) VH: EVQLVQSGAEVKKPGASVKVSCKTSGYTFITYWMNWVRQAPGAGLDWMGQIFPAWGMTNYNEMFEGRVTLTADTSTSTAYMELSSLRAGDIAVYYCARGYGNYALDAMDYWGQGTLVTVSS VL: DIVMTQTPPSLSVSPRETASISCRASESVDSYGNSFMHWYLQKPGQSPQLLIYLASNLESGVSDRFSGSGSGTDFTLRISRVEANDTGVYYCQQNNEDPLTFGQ", "3.75 nM"),
    ("affinity matured HcLb 239 (antibody, V domains shown, full IgG; also called canHcLb/55SW/100DY/31/TK + canHcLb/237ND/242TS) VH: EVQLVQSGAEVKKPGASVKVSCKTSGYTFIKYWMNWVRQAPGAGLDWMGQIFPAWGSTNYNEMFEGRVTLTADTSTSTAYMELSSLRAGDIAVYYCARGYGNYALDAMDYWGQGTLVTVSS VL: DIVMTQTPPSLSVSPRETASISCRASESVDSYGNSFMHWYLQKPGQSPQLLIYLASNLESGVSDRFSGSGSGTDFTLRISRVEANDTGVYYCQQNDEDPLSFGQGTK", "6.44 nM"),
    ("affinity matured HcLb 189 (antibody, V domains shown, full IgG; also called canHcLb/S55W/D100Y + canHcLb/237ND/242TS) VH: EVQLVQSGAEVKKPGASVKVSCKTSGYTFITYWMNWVRQAPGAGLDWMGQIFPAWGSTNYNEMFEGRVTLTADTSTSTAYMELSSLRAGDIAVYYCARGYGNYALDAMDYWGQGTLVTVSS VL: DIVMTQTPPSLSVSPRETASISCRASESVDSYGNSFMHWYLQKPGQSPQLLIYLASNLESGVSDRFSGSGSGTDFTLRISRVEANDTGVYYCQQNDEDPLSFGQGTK", "0.922 nM"),
    ("affinity matured HcLb 264 (antibody, V domains shown, full IgG; also called canHcLb/55SW/100DY/30IM/31TK/28TI + canHcLb/237ND/242TS) VH: EVQLVQSGAEVKKPGASVKVSCKTSGYIFMKYWMNWVRQAPGAGLDWMGQIFPAWGSTNYNEMFEGRVTLTADTSTSTAYMELSSLRAGDIAVYYCARGYGNYALDAMDYWGQGTLVTVSS VL: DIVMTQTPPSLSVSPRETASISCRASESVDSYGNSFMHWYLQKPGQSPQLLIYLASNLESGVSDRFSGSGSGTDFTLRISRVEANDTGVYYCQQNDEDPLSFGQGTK", "3.89 nM"),
    ("affinity matured HcLb 237 (antibody, V domains shown, full IgG; also called canHcLb/55SW/100DY/57/SV + canHcLb/237ND/242TS) VH: EVQLVQSGAEVKKPGASVKVSCKTSGYTFITYWMNWVRQAPGAGLDWMGQIFPAWGVTNYNEMFEGRVTLTADTSTSTAYMELSSLRAGDIAVYYCARGYGNYALDAMDYWGQGTLVTVSS VL: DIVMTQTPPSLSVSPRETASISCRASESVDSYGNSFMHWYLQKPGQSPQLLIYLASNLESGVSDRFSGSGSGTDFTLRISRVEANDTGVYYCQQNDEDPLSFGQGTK", "4.07 nM"),
    ("affinity matured HcLb 205 (antibody, V domains shown, full IgG; also called canHcLb/S55W/D100Y/T28/I + canHcLb/237ND/242TS) VH: EVQLVQSGAEVKKPGASVKVSCKTSGYIFITYWMNWVRQAPGAGLDWMGQIFPAWGSTNYNEMFEGRVTLTADTSTSTAYMELSSLRAGDIAVYYCARGYGNYALDAMDYWGQGTLVTVSS VL: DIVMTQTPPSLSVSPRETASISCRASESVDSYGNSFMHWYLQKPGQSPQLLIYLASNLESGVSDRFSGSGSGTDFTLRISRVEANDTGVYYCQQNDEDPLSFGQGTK", "2.09 nM"),
    ("affinity matured HcLb 267 (antibody, V domains shown, full IgG; constant regions not restated) VH: EVQLVQSGAEVKKPGASVKVSCKTSGYIFMKYWMNWVRQAPGAGLDWMGQIFPAWGSTNYNEMFEGRVTLTADTSTSTAYMELSSLRAGDIAVYYCARGYGNYALDAMDYWGQGTLVTVSS VL: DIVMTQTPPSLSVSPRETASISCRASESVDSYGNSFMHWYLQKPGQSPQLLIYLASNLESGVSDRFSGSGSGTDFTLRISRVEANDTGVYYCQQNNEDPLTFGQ", "3.77 nM"),
]
